Measured values drawn from PubChem BioAssay AID256 for this set.

tested on: CD2F1 mice, L1210 leukemia ip, survival T/C; experiment: NCI In Vivo Anticancer Drug Screen. Data for tumor model L1210 Leukemia (intraperitoneal) in CD2F1 (CDF1) mice; conditions: endpoint: mean survival time; dose: 200.0 mg/kg/injection; schedule: Q01DX001 (ip); vehicle: saline; higher = longer survival
Toxic doses and inconclusive results are not listed.
quantity: T/C

Query the reported T/C for CD2F1 mice, L1210 leukemia ip, survival T/C; item: `Nc1ccc(Cl)cc1C(=O)c1ccc[nH]1`
98 % of control

Quick check: T/C on CD2F1 mice, L1210 leukemia ip, survival T/C, item `CC(=O)O.[Tl]` ?
100 % of control

Which measured T/C belongs to `Cn1c(=O)[nH]c2c(c1=O)CCO2` , tested on CD2F1 mice, L1210 leukemia ip, survival T/C?
97 % of control

What reported T/C corresponds to COc1ccc2c(c1)C1(C)C/C(=C\c3ccoc3)C(=O)C(C)C1CC2 (configuration not stated) on CD2F1 mice, L1210 leukemia ip, survival T/C?
94 % of control

Field: T/C (CD2F1 mice, L1210 leukemia ip, survival T/C). Entry: `O=C(O)c1ccc(C(=O)O)nc1`
95 % of control

Recorded T/C for Nc1nc(N)c2nc(CNc3ccc(C(=O)NC(CC(=O)O)C(=O)O)cc3)cnc2n1 (configuration not stated) with CD2F1 mice, L1210 leukemia ip, survival T/C, please?
117 % of control

Look up T/C with CD2F1 mice, L1210 leukemia ip, survival T/C for this compound: `O=S(=O)(O)c1ccc(O)c(S(=O)(=O)O)c1`
101 % of control

Recorded T/C for `O=C(Nc1c(Oc2ccc(Cl)cc2Cl)ccc(Cl)c1S(=O)(=O)O)Nc1c(Oc2ccc(Cl)cc2Cl)ccc(Cl)c1S(=O)(=O)O` with CD2F1 mice, L1210 leukemia ip, survival T/C, please?
93 % of control

Query for CD2F1 mice, L1210 leukemia ip, survival T/C: what T/C does the record show for `C[n+]1cccc(C=O)c1` ?
105 % of control

Please provide the recorded T/C for `O=C(CSCC(=O)c1ccc(Br)cc1)c1ccc(Br)cc1` , tested on CD2F1 mice, L1210 leukemia ip, survival T/C.
98 % of control

Query T/C on CD2F1 mice, L1210 leukemia ip, survival T/C for `CC(C)(O)C(=NCc1ccccc1)c1ccccc1`
93 % of control

Lab note: need T/C for `CN(C)C=Nc1c(Cl)cccc1Cl` on CD2F1 mice, L1210 leukemia ip, survival T/C, anyone have it?
97 % of control
